B1: Hairpin Ribozyme (parent)
chain: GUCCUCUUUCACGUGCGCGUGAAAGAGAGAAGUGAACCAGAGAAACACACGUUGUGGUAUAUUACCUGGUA

Variants of: B1
Assay: self-cleavage, relative activity (ratio to wild type); higher = more cleavage; co-transcriptional

variant description	self-cleavage
C4G C38A	0.0909
C6U A30C	0.205
U20G G57A	0.195
G17U U63G	0.0762
G29A G68U	0.306
C16G U53G	0.713
G27U G51A	0.307
C16G C18U	0.823
C18G A41U	0.906
C10A A47G	0.2
G40C G69C	0.169
